Overview of recorded Ki for various compounds
assay-target: Aurora-2 (Aurora A) (Homo sapiens, UniProt O14965)
Sequence (O14965 whole entry): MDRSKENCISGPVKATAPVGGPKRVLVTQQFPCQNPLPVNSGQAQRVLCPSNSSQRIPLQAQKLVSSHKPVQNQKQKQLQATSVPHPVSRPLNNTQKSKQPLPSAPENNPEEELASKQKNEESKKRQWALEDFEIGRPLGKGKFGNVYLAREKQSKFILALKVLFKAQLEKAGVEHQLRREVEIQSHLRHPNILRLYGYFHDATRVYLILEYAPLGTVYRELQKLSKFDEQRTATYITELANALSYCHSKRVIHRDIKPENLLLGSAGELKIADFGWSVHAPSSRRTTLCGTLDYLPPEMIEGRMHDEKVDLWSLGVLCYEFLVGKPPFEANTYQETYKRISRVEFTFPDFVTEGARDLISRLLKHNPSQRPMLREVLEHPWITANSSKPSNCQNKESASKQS
procedure-details: Aurora-2 (Aurora A) inhibition assay, coupled enzyme
Assay type: biochemical
condition-label: read-out: Aurora A kinase Ki value
quantity-kind: Ki

                              smiles_string  quantity_kind  reported_measurement
0  Cc1cc(Nc2cc(N3CC(OC(=O)CN(C)C)(C4CC4)C3)nc(Sc3ccc(NC(=O)C4CC4)cc3)n2)n[nH]1             Ki                ≤ 1 nM
1  Cc1cc(Nc2cc(N3CCC3)nc(Sc3ccc(-n4ccccc4=O)cc3)n2)[nH]n1             Ki           5 to 200 nM
2  COC1CN(c2cc(Nc3cc(C)n[nH]3)nc(Sc3ccc(NC(=O)c4ccccc4C(F)(F)F)cc3)n2)C1             Ki                ≤ 1 nM
3  Cc1cc(Nc2cc(N3CC(N4CC[C@H](F)C4)C3)nc(Sc3ccc(NC(=O)CC(F)(F)F)cc3)n2)[nH]n1             Ki                ≤ 1 nM
4  CCN(CC)C(=O)Nc1ccc(Sc2nc(Nc3cc(C)[nH]n3)cc(N3CCC3)n2)cc1             Ki           5 to 200 nM
5  CCC(=O)Nc1ccc(Sc2nc(Nc3cc(C)[nH]n3)cc(N3CCC3)n2)cc1             Ki             1 to 5 nM
6  CC(=O)Nc1cccc(Sc2nc(Nc3cc(C)n[nH]3)cc(N3CC(F)(C4CC4)C3)n2)c1             Ki           5 to 200 nM
